Entry source: paper PMC3914891

method: in vivo
test_parameters: male, Sprague-Dawley, rat, po, 100 mg/kg
measured_metric: bioavailability (%)

>  <compound>
O=[N+]([O-])c1ccc(C2=NOC(c3ccc(N4CCC(Oc5ccc(OC(F)(F)F)cc5)CC4)c(F)c3)C2)o1 (centres unmarked)

>  <value_units>
%

>  <quantitative_result>
0.83

$$$$
>  <compound>
O=[N+]([O-])c1ccc(C2=NOC(c3ccc(N4CCC(Oc5ccc(OC(F)(F)F)cc5)CC4)nc3)C2)o1 (centres unmarked)

>  <value_units>
%

>  <quantitative_result>
8

$$$$

---

The reader will find reported AUC(0-inf) values listed item by item below.
method: in vivo
test_parameters: male, Sprague-Dawley, rat, po, 100 mg/kg

>  <compound>
O=[N+]([O-])c1ccc(C2=NOC(c3ccc(N4CCC(Oc5ccc(OC(F)(F)F)cc5)CC4)nc3)C2)o1 (centres unmarked)

>  <value_units>
ng·h/mL

>  <AUC(0-inf)>
15100

$$$$
>  <compound>
O=[N+]([O-])c1ccc(C2=NOC(c3ccc(N4CCC(Oc5ccc(OC(F)(F)F)cc5)CC4)c(F)c3)C2)o1 (centres unmarked)

>  <value_units>
ng·h/mL

>  <AUC(0-inf)>
1610

$$$$
